This listing pairs compounds with measured logP.
Test: Partition coefficient (logP)
Format: physicochemical
Settings: octanol/water
reported_property: logP

INSERT INTO results (compound, reported_result) VALUES
  ('CCc1cccc2c3c([nH]c12)C(CC)(CC(=O)O)OC[C@@H]3Cc1ccccc1 (some centres undefined)', 5.6),
  ('CCC1(CC(=O)O)OC[C@H](Cc2ccccc2)c2c1[nH]c1c(C)cccc21 (some centres undefined)', 5),
  ('C=CC[C@H]1CCC(CC)(CC(=O)O)c2[nH]c3c(CCC)cccc3c21 (some centres undefined)', 6.9),
  ('C=CC[C@H]1CCC(CC)(CC(=O)O)c2[nH]c3c(C)cccc3c21 (some centres undefined)', 5.8),
  ('C=CC[C@H]1COC(CC)(CC(=O)O)c2[nH]c3c(CC)cccc3c21 (some centres undefined)', 4.5),
  ('CCc1cccc2c3c([nH]c12)C(CC)(CC(=O)O)CCC3 (centres undefined)', 5.3),
  ('C=CC[C@H]1CCC(CC)(CC(=O)O)c2[nH]c3ccccc3c21 (some centres undefined)', 5.2),
  ('CCc1cccc2c3c([nH]c12)C(CC)(CC(=O)O)CC[C@@H]3Cc1ccccc1 (some centres undefined)', 7.4),
  ('CCC1(CC(=O)O)CC[C@H](Cc2ccccc2)c2c1[nH]c1ccccc21 (some centres undefined)', 6.2),
  ('C=CC[C@H]1CCC(CC)(CC(=O)O)c2[nH]c3c(CC)cccc3c21 (some centres undefined)', 6.3),
  ('C=CC[C@H]1COC(CC)(CC(=O)O)c2[nH]c3c(C)cccc3c21 (some centres undefined)', 4),
  ('CCC1(CC(=O)O)OC[C@H](Cc2ccccc2)c2c1[nH]c1ccccc21 (single isomer, unassigned) [DEXPEMEDOLAC]', 4.4),
  ('CCC1(CC(=O)O)CC[C@H](Cc2ccccc2)c2c1[nH]c1c(C)cccc21 (some centres undefined)', 6.9),
  ('C=CC[C@H]1COC(CC)(CC(=O)O)c2[nH]c3ccccc3c21 (some centres undefined)', 3.3);

All figures here come from ChEMBL document CHEMBL1124231.
